The reported measurements were obtained from patent US8604038B2.

target_of_assay: human β3 adrenergic receptor (Homo sapiens, UniProt P13945)
Construct: expressed in transfected cells; host or cells: CHO (Chinese hamster ovary) cells, stably transfected
Sequence (P13945 whole entry): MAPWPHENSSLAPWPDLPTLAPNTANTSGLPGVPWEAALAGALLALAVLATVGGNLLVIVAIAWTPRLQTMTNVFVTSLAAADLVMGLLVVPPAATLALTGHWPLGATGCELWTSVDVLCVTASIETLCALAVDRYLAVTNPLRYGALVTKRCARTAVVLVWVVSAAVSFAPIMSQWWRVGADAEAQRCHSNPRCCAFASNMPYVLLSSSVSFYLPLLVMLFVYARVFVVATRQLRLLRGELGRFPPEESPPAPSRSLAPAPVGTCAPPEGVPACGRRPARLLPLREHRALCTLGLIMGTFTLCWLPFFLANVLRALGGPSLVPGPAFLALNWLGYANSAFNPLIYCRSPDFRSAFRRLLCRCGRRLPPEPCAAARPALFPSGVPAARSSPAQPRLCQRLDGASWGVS
assay_text: Beta-3 agonist in vitro functional assay (cAMP production, LANCE, transfected CHO cells)
Assay type: cell-based
settings: Table 1, CHO cells with cloned β3 receptor, ligands titrated 10^-10 M to 10^-5 M, read-out: Human β3 agonist functional activity
quantity: EC50

Data request: Provide measured EC50 value, entry: O=C(NCc1nc(C(F)(F)F)cc(=O)[nH]1)c1ccc(C[C@@H]2CC[C@H]([C@H](O)c3ccccc3)N2)cc1 [Example 28]
Data returned: 10 to 99.9 nM

Data request: Provide measured EC50 value, entry: Cc1ccnc(CNC(=O)c2ccc(C[C@@H]3CC[C@H]([C@H](O)c4ccccc4)N3)cc2)n1 [Example 18]
Data returned: 10 to 99.9 nM

Data request: Provide measured EC50 value, entry: O=C(NCc1nccc(C(F)(F)F)n1)c1ccc(C[C@@H]2CC[C@H]([C@H](O)c3ccccc3)N2)cc1 [Example 14]
Data returned: 10 to 99.9 nM

Data request: Provide measured EC50 value, entry: O=C(NCc1ccccn1)c1ccc(C[C@@H]2CC[C@H]([C@H](O)c3ccccc3)N2)cc1 [Example 2]
Data returned: 10 to 99.9 nM

Data request: Provide measured EC50 value, entry: Cc1ccnc(CNC(=O)c2ccc(C[C@@H]3CC[C@H]([C@H](O)c4ccccc4)N3)cc2)c1 [Example 19]
Data returned: 10 to 99.9 nM

Data request: Provide measured EC50 value, entry: Nc1nc(CNC(=O)c2ccc(C[C@@H]3CC[C@H]([C@H](O)c4cccnc4)N3)cc2)cs1 [Example 26]
Data returned: 10 to 99.9 nM

Data request: Provide measured EC50 value, entry: O=C(NCc1nc2cccnc2[nH]1)c1ccc(C[C@@H]2CC[C@H]([C@H](O)c3ccccc3)N2)cc1 [Example 37]
Data returned: 10 to 99.9 nM

Data request: Provide measured EC50 value, entry: O=C(NCc1nccc(C2CC2)n1)c1ccc(C[C@@H]2CC[C@H]([C@H](O)c3ccccc3)N2)cc1 [Example 15]
Data returned: 10 to 99.9 nM

Data request: Provide measured EC50 value, entry: O=C(NC1CCCc2cccnc21)c1ccc(C[C@@H]2CC[C@H]([C@H](O)c3ccccc3)N2)cc1 (some centres unmarked) [Example 48]
Data returned: 100 to 999 nM

Data request: Provide measured EC50 value, entry: O=C(NCc1ncccn1)c1ccc(C[C@@H]2CC[C@H]([C@H](O)c3ccccc3)N2)cc1 [Example 9]
Data returned: 100 to 999 nM

Data request: Provide measured EC50 value, entry: Cc1nccnc1CNC(=O)c1ccc(C[C@@H]2CC[C@H]([C@H](O)c3ccccc3)N2)cc1 [Example 20]
Data returned: 10 to 99.9 nM

---

target_of_assay: human β3 adrenergic receptor (Homo sapiens)
Construct: expressed in transfected cells; host or cells: CHO (Chinese hamster ovary) cells, stably transfected
assay_text: Beta-3 agonist in vitro functional assay (cAMP production, LANCE, transfected CHO cells)
Format: cell-based
settings: Table 3, CHO cells with cloned β3 receptor, ligands titrated 10^-12 M to 10^-5 M, read-out: Human β3 agonist functional activity
quantity: EC50

Data request: Provide measured EC50 value, entry: `CN(CCC1CCOCC1)C(=O)c1ccc(C[C@@H]2CC[C@H]([C@H](O)c3ccccc3)N2)cc1`
Data returned: 0.1 to 0.999 µM

Data request: Provide measured EC50 value, entry: `CN(Cc1nccs1)C(=O)c1ccc(C[C@@H]2CC[C@H]([C@H](O)c3ccccc3)N2)cc1`
Data returned: 0.1 to 0.999 µM

Data request: Provide measured EC50 value, entry: `CN(Cc1nc(-c2ccncc2)no1)C(=O)c1ccc(C[C@@H]2CC[C@H]([C@H](O)c3ccccc3)N2)cc1`
Data returned: 0.1 to 0.999 µM

Data request: Provide measured EC50 value, entry: `CN(Cc1nc2ccccc2[nH]1)C(=O)c1ccc(C[C@@H]2CC[C@H]([C@H](O)c3ccccc3)N2)cc1`
Data returned: 0.1 to 0.999 µM

Data request: Provide measured EC50 value, entry: `CC(C)c1noc(CN(C)C(=O)c2ccc(C[C@@H]3CC[C@H]([C@H](O)c4ccccc4)N3)cc2)n1`
Data returned: 0.01 to 0.0999 µM

Data request: Provide measured EC50 value, entry: `CN(Cc1cccc(F)c1)C(=O)c1ccc(C[C@@H]2CC[C@H]([C@H](O)c3ccccc3)N2)cc1`
Data returned: 0.001 to 0.0099 µM

Data request: Provide measured EC50 value, entry: `CN(Cc1cccc(N2CCCC2)n1)C(=O)c1ccc(C[C@@H]2CC[C@H]([C@H](O)c3ccccc3)N2)cc1`
Data returned: 0.1 to 0.999 µM

---

target_of_assay: human β3 adrenergic receptor (Homo sapiens)
Construct: expressed in transfected cells; host or cells: CHO (Chinese hamster ovary) cells, stably transfected
assay_text: Beta-3 agonist in vitro functional assay (cAMP production, LANCE, transfected CHO cells)
Format: cell-based
settings: Table 3, CHO cells with cloned β3 receptor, ligands titrated 10^-12 M to 10^-5 M, read-out: Human β3 agonist functional activity
Answer each item with its documented EC50.

Data request: Provide measured EC50 value, entry: Cc1csc(CN(C)C(=O)c2ccc(C[C@@H]3CC[C@H]([C@H](O)c4ccccc4)N3)cc2)n1 [Example 123]
Data returned: 100 to 999 nM

Data request: Provide measured EC50 value, entry: CC(C)c1nc(CCN(C)C(=O)c2ccc(C[C@@H]3CC[C@H]([C@H](O)c4ccccc4)N3)cc2)no1 [Example 89]
Data returned: 10 to 99.9 nM

Data request: Provide measured EC50 value, entry: CN(Cc1csc(N)n1)C(=O)c1ccc(C[C@@H]2CC[C@H]([C@H](O)c3ccccc3)N2)cc1 [Example 132]
Data returned: 100 to 999 nM

Data request: Provide measured EC50 value, entry: CN(Cc1noc(C2CC2)n1)C(=O)c1ccc(C[C@@H]2CC[C@H]([C@H](O)c3ccccc3)N2)cc1 [Example 112]
Data returned: 10 to 99.9 nM

Data request: Provide measured EC50 value, entry: CN(Cc1nc2ccsc2c(=O)[nH]1)C(=O)c1ccc(C[C@@H]2CC[C@H]([C@H](O)c3ccccc3)N2)cc1 [Example 114]
Data returned: 1 to 9.9 nM

Data request: Provide measured EC50 value, entry: CN(Cc1ncc(Cl)cn1)C(=O)c1ccc(C[C@@H]2CC[C@H]([C@H](O)c3ccccc3)N2)cc1 [Example 125]
Data returned: 100 to 999 nM

Data request: Provide measured EC50 value, entry: CN(Cc1nccn1C)C(=O)c1ccc(C[C@@H]2CC[C@H]([C@H](O)c3ccccc3)N2)cc1 [Example 76]
Data returned: 100 to 999 nM

Data request: Provide measured EC50 value, entry: CCN(Cc1ccccn1)C(=O)c1ccc(C[C@@H]2CC[C@H]([C@H](O)c3ccccc3)N2)cc1 [Example 121]
Data returned: 100 to 999 nM

Data request: Provide measured EC50 value, entry: CN(Cc1cccnc1Cl)C(=O)c1ccc(C[C@@H]2CC[C@H]([C@H](O)c3ccccc3)N2)cc1 [Example 124]
Data returned: 10 to 99.9 nM

Data request: Provide measured EC50 value, entry: CCN(CCN)C(=O)c1ccc(C[C@@H]2CC[C@H]([C@H](O)c3ccccc3)N2)cc1 [Example 115]
Data returned: 100 to 999 nM

Data request: Provide measured EC50 value, entry: CN(Cc1cccnn1)C(=O)c1ccc(C[C@@H]2CC[C@H]([C@H](O)c3ccc(N)nc3)N2)cc1 [Example 56]
Data returned: 10 to 99.9 nM

Data request: Provide measured EC50 value, entry: CC(C)c1nccc(CN(C)C(=O)c2ccc(C[C@@H]3CC[C@H]([C@H](O)c4ccccc4)N3)cc2)n1 [Example 80]
Data returned: 1 to 9.9 nM

Data request: Provide measured EC50 value, entry: O=C(c1ccc(C[C@@H]2CC[C@H]([C@H](O)c3ccccc3)N2)cc1)N(Cc1cccnn1)C1CC1 [Example 130]
Data returned: 100 to 999 nM

Data request: Provide measured EC50 value, entry: CN(Cc1cc2ccccc2cn1)C(=O)c1ccc(C[C@@H]2CC[C@H]([C@H](O)c3ccccc3)N2)cc1 [Example 52]
Data returned: 100 to 999 nM

Data request: Provide measured EC50 value, entry: CN(Cc1cnn(-c2ccccc2)n1)C(=O)c1ccc(C[C@@H]2CC[C@H]([C@H](O)c3ccccc3)N2)cc1 [Example 58]
Data returned: 10 to 99.9 nM
